- assay remarks: Gravimetric solubility measurement in solvents
- Format: physicochemical
- particulars: organic solvent or mixture, thermodynamic from solid; EtOAc; 15° C.; slurried 3 days; read-out: Solubility at 15° C.
- Description: A plinabulin compound was slurried in 15 different solvents/solvent mixtures as shown in Table 9 at 15° C. and 45° C. for 3 days for gravimetric solubility measurement. About 70 mg of solid was added to a vial for each experiment followed by addition of 0.7 mL of the respective solvents. Next, the slurry was centrifuged and the supernatant was added to pre-weighed vials and evaporated to dryness under vacuum. The vials with remaining solids were weighed again to calculate the solubility. […]
reported property: solubility at 3 days (µg/mL)
Give bare numbers, in µg/mL.

// query solubility at 3 days value for entry CC(C)(C)c1[nH]cnc1/C=c1\[nH]c(=O)/c(=C/c2ccccc2)[nH]c1=O [plinabulin monohydrate]
3000

// provenance: patent US11254657B2
